Just for reference, ChEMBL document CHEMBL1129246 is where these values come from.

species: Cavia porcellus; experiment: Activity of inotropic negative potency on stimulated guinea pig left atrium; type: functional; conditions: Cardiac atrium, read-out: ED50 (the source's name)
pEC50: −log10 of the molar value.
observed.property: pEC50

pEC50 measured on "COc1ccc([C@H]2Sc3ccc(Cl)cc3-n3c(CN(C)C)ccc3[C@H]2OC(C)=O)cc1" = 6.18

pEC50 measured on "COc1ccc([C@H]2Sc3ccccc3-n3c(CN(C)C)ccc3[C@H]2OC(C)=O)cc1" = 6.15

I = COc1ccc(C2Sc3ccccc3-n3c(CN(C)C)ccc32)cc1 (centres undefined)
II = COc1ccc(C2=C(OC(C)=O)c3cccn3-c3ccccc3S2)cc1
## Input Which has the higher pEC50, I or II ? Give the label of your selection.
## Output II
(II: 6.51, I: 6.09)
